- Assay comment: Approximate solubility of the coupling molecule in spray drying solvents
- Type: physicochemical
- Experimental context: ethyl acetate, organic solvent or mixture, thermodynamic from solid; read-out: Approximate Solubility
Endpoint label: solubility

Input: May I ask what solubility has been recorded for CO[C@H]1/C=C/O[C@@]2(C)Oc3c(C)c(O)c4c(c3C2=O)C2=NC3(CCN(CCn5c([N+](=O)[O-])cnc5C)CC3)NC2=C(NC(=O)/C(C)=C\C=C\[C@H](C)[C@H](O)[C@@H](C)[C@@H](O)[C@@H](C)[C@H](OC(C)=O)[C@@H]1C)C4=O ?
Output: 167 to 200 mg/mL

====

- Assay comment: Approximate solubility of the coupling molecule in spray drying solvents
- Type: physicochemical
- Experimental context: organic solvent or mixture, thermodynamic from solid; various common spray drying solvents; read-out: Solubility
Endpoint label: solubility

Input: May I ask what solubility has been recorded for CO[C@H]1/C=C/O[C@@]2(C)Oc3c(C)c(O)c4c(c3C2=O)C2=NC3(CCN(CCn5c([N+](=O)[O-])cnc5C)CC3)NC2=C(NC(=O)/C(C)=C\C=C\[C@H](C)[C@H](O)[C@@H](C)[C@@H](O)[C@@H](C)[C@H](OC(C)=O)[C@@H]1C)C4=O [API] ?
Output: > 100 mg/mL

====

- Assay comment: Approximate solubility of the coupling molecule in spray drying solvents
- Type: physicochemical
- Experimental context: methanol, organic solvent or mixture, thermodynamic from solid; read-out: Approximate Solubility
Endpoint label: solubility

Input: May I ask what solubility has been recorded for CO[C@H]1/C=C/O[C@@]2(C)Oc3c(C)c(O)c4c(c3C2=O)C2=NC3(CCN(CCn5c([N+](=O)[O-])cnc5C)CC3)NC2=C(NC(=O)/C(C)=C\C=C\[C@H](C)[C@H](O)[C@@H](C)[C@@H](O)[C@@H](C)[C@H](OC(C)=O)[C@@H]1C)C4=O ?
Output: > 300 mg/mL

====

- Assay comment: Approximate solubility of the coupling molecule in spray drying solvents
- Assay type: physicochemical
- Experimental context: tetrahydrofuran, organic solvent or mixture, thermodynamic from solid; read-out: Approximate Solubility
Endpoint label: solubility

Input: May I ask what solubility has been recorded for CO[C@H]1/C=C/O[C@@]2(C)Oc3c(C)c(O)c4c(c3C2=O)C2=NC3(CCN(CCn5c([N+](=O)[O-])cnc5C)CC3)NC2=C(NC(=O)/C(C)=C\C=C\[C@H](C)[C@H](O)[C@@H](C)[C@@H](O)[C@@H](C)[C@H](OC(C)=O)[C@@H]1C)C4=O ?
Output: > 200 mg/mL
